Source listed as PubChem BioAssay AID248.

- System: L1210 leukemia ip in BDF1 mice, survival T/C
- protocol summary: NCI In Vivo Anticancer Drug Screen. Data for tumor model L1210 Leukemia (intraperitoneal) in B6D2F1 (BDF1) mice
- run conditions: endpoint: mean survival time; dose: 6.25 mg/kg/injection; schedule: Q01DX009 (ip); vehicle: saline; higher = longer survival
Inconclusive results and toxic doses are left out.
Could you please report measured T/C for the items listed next?

Use the examples below as a reference point.
molecule | target or system | observed measurement
CN1C2CCC1CC(OC1c3ccccc3CCc3ccccc31)C2 (stereo unspecified) | L1210 leukemia ip in BDF1 mice, survival T/C | 105 % of control
CCN(CCNS(C)(=O)=O)c1ccc(N)c(C)c1 | L1210 leukemia ip in BDF1 mice, survival T/C | 91 % of control
O=C(O)C1C(C(=O)O)C23CC2(C(=O)O)C2(C(=O)O)CCC3=C3CCCC312 (stereo unspecified) | L1210 leukemia ip in BDF1 mice, survival T/C | 109 % of control
CN(C/C=C/CN(C)P(=O)(N1CC1)N1CC1)P(=O)(N1CC1)N1CC1 | L1210 leukemia ip in BDF1 mice, survival T/C | 107 % of control
CC(CCc1ccccc1)NC(C)C(O)c1ccc(O)cc1 (stereo unspecified) | L1210 leukemia ip in BDF1 mice, survival T/C | 101 % of control

Now for a further molecule.
Any idea what T/C came out for CC1(C)N=C(N)N=C(N)N1c1ccc(CNC(=O)Nc2cccc(S(=O)(=O)F)c2)cc1 on L1210 leukemia ip in BDF1 mice, survival T/C?
116 % of control
